src = ChEMBL document CHEMBL1255227

# studyTarget: 5-hydroxytryptamine receptor 1A (Homo sapiens) (UniProt P08908)
# Sequence (whole entry): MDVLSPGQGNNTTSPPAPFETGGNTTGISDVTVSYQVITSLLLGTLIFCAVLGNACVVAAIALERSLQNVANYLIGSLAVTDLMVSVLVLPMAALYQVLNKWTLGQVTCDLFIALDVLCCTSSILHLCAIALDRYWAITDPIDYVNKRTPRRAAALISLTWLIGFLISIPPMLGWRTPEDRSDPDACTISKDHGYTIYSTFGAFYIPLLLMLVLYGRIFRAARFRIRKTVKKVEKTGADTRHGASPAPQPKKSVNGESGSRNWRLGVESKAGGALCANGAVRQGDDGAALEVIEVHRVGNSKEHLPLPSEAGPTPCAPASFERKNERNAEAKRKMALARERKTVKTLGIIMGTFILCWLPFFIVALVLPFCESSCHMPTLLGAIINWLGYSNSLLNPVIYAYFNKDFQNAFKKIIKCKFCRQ
# protocol: Intrinsic activity at human 5-HT1A receptor expressed in CHO cells assessed as increase of serotonin-induced [35S]GTPgammaS binding relative to serotonin
# Format: functional, cell-based
List of Emax values.
Please state the figure in %; there is no need to write the unit.

// below: answered molecules
- molecule: "Cc1ccc(CNCC2(F)CCN(C(=O)c3sccc3C)CC2)nc1"
  reportedEndpoint: "Emax"
  dataValue: 96
- molecule: "Cc1ccc(CNCC2(F)CCN(C(=O)c3sccc3Br)CC2)nc1"
  reportedEndpoint: "Emax"
  dataValue: 104
- molecule: "Cc1ccc(CNCC2(F)CCN(C(=O)c3ccc(Cl)s3)CC2)nc1"
  reportedEndpoint: "Emax"
  dataValue: 101
- molecule: "Cc1ccc(CNCC2(F)CCN(C(=O)c3sccc3Cl)CC2)nc1"
  reportedEndpoint: "Emax"
  dataValue: 99
- molecule: "Cc1ccc(CNCC2(F)CCN(C(=O)c3cc4ccccc4s3)CC2)nc1"
  reportedEndpoint: "Emax"
  dataValue: 116
- molecule: "Cc1ccc(CNCC2(F)CCN(C(=O)c3cnn4ccccc34)CC2)nc1"
  reportedEndpoint: "Emax"
  dataValue: 96
- molecule: "Cc1ccc(CNCC2(F)CCN(C(=O)c3cc4sccc4s3)CC2)nc1"
  reportedEndpoint: "Emax"
  dataValue: 100
- molecule: "Cc1ccc(CNCC2(F)CCN(C(=O)c3sc4sccc4c3Cl)CC2)nc1"
  reportedEndpoint: "Emax"
  dataValue: 97
- molecule: "Cc1ccc(CNCC2(F)CCN(C(=O)c3ccc(C)s3)CC2)nc1"
  reportedEndpoint: "Emax"
  dataValue: 104
- molecule: "Cc1ccc(CNCC2(F)CCN(C(=O)c3cc4ccccn4n3)CC2)nc1"
  reportedEndpoint: "Emax"
  dataValue: 80

Need Emax of COc1c(C(=O)N2CCC(F)(CNCc3ccc(C)cn3)CC2)csc1Br , thanks.
95

Try Cc1ccc(CNCC2(F)CCN(C(=O)c3coc4ccccc34)CC2)nc1 next.
101

Proceed to Cc1ccc(CNCC2(F)CCN(C(=O)c3cc4ccccc4o3)CC2)nc1
87

Query Cc1ccc(CNCC2(F)CCN(C(=O)c3csc4ccccc34)CC2)nc1 next
124

Could you do the same for Cc1ccc(CNC[C@@]2(O)C[C@H]3CC[C@@H](C2)N3C(=O)c2ccccc2)nc1 (stereo in doubt; 34) , please?
113

Item: Cc1ccc(CNCC2(F)CCN(C(=O)c3ccc(Br)s3)CC2)nc1
95

Now the molecule Cc1ccc(CNCC2(F)CCN(C(=O)c3cc(C)cs3)CC2)nc1
101

// query: Cc1ccc(CNCC2(F)CCN(C(=O)c3cccs3)CC2)nc1
91

What do you get for Cc1ccc(CNCC2(F)CCN(C(=O)c3cc4ccsc4s3)CC2)nc1 ?
103

And then COc1cscc1C(=O)N1CCC(F)(CNCc2ccc(C)cn2)CC1 , what is it?
93

What would you report for Cc1ccc(CNCC2(F)CCN(C(=O)c3ccccc3)CC2)nc1 ?
96
